- Measured Target: Dopamine D1 (Homo sapiens)
- Sequence (P21728 whole entry): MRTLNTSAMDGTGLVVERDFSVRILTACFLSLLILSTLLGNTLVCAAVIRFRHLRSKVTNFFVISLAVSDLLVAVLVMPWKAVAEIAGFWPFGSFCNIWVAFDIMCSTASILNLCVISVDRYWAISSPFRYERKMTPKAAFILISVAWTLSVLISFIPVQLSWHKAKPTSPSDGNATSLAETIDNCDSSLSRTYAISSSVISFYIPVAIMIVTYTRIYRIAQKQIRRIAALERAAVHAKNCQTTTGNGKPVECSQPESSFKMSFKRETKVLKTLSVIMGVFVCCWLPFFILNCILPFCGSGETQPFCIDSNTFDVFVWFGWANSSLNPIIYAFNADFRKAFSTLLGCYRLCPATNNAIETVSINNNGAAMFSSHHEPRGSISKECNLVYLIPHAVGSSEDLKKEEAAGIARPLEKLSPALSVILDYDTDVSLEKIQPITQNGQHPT
- Method Summary: Off‐target panel: Dopamine D1
- Assay type: cell-based
Assay Endpoint: IC50

Q: Given the compound CCC[C@@H](NC(=O)c1cccc2c1CC(=O)N2)[C@@H](O)c1cccc(F)c1C , what is its reported IC50?
A: > 100 µM

---

- Measured Target: CYP3A4 (Homo sapiens, UniProt P08684)
- Construct: pre‐incubated at 37°C with human liver microsomes (0.1 mg/ml); from tissue; host or cells: human liver microsomes
- Sequence (P08684 whole entry): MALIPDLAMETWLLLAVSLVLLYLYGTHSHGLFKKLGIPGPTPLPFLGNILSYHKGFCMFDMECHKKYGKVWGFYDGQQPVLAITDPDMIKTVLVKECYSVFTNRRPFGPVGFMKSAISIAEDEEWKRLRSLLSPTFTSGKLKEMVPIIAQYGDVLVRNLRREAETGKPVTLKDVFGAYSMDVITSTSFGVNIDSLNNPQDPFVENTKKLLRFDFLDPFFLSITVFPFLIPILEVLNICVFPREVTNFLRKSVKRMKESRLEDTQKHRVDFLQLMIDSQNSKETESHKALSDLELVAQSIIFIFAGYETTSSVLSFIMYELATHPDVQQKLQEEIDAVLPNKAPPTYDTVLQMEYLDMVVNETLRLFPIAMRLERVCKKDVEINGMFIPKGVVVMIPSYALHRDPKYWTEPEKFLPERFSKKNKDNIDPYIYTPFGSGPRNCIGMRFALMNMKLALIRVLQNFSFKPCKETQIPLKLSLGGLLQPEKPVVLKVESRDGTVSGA
- Method Summary: CYP3A4 TDI fold IC50 shift (human liver microsomes, midazolam)
- Assay type: in vitro ADME
- Condition Set: probe midazolam (12.5 µM), read-out: time‐dependent inhibition of CYP3A4, fold shift in IC50
Assay Endpoint: IC50 shift
Answers are plain numbers.

Q: Given the compound CCC[C@@H](NC(=O)c1cccc2c1CC(=O)N2)[C@@H](O)c1cccc(F)c1C , what is its reported IC50 shift?
A: 1.59

---

- Measured Target: Cycloxygenase2 (COX2) (Homo sapiens, UniProt P35354)
- Sequence (P35354 18-604): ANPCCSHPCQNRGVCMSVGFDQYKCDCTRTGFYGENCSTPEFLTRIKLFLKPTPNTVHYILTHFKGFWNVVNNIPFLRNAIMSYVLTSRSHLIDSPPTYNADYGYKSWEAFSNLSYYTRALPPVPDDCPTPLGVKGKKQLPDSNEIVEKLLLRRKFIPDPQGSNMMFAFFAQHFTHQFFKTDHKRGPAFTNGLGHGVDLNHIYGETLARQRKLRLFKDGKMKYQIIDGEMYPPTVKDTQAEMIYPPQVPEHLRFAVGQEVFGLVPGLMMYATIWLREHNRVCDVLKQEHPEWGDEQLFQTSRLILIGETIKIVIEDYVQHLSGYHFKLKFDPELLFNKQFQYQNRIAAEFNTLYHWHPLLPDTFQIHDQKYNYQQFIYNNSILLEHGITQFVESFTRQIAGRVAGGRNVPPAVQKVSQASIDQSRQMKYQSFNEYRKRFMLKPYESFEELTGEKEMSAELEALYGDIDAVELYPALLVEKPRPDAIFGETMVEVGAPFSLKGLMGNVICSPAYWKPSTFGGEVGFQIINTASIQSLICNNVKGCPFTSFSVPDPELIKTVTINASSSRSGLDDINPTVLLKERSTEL
- Method Summary: Off‐target panel: Cycloxygenase2 (COX2)
- Assay type: biochemical
- Condition Set: Inhibition, read-out: Mean (PXC50)
Assay Endpoint: IC50

Q: Lab note: need IC50 with Cycloxygenase2 (COX2) (Homo sapiens, UniProt P35354) for entry CCC[C@@H](NC(=O)c1cccc2c1CC(=O)N2)[C@@H](O)c1cccc(F)c1C [GSK716] , please look it up.
A: > 100 µM

---

- Measured Target: Adrenergic β2 (Homo sapiens, UniProt P07550)
- Sequence (P07550 whole entry): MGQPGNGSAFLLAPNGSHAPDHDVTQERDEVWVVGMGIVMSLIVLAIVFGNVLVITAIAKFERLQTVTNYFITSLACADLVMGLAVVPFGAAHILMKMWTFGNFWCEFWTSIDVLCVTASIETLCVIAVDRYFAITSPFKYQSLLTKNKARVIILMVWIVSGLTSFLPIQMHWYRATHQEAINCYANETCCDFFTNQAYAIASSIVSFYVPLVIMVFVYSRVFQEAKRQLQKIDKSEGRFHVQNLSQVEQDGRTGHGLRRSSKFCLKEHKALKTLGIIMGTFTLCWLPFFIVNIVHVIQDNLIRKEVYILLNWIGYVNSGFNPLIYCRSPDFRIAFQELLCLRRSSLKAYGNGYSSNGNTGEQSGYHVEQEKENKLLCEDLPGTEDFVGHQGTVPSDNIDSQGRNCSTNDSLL
- Method Summary: Off‐target panel: Adrenergic β2
- Format: cell-based
- Condition Set: Agonist, read-out: Mean (PXC50)
Assay Endpoint: EC50

Q: Given the compound CCC[C@@H](NC(=O)c1cccc2c1CC(=O)N2)[C@@H](O)c1cccc(F)c1C , what is its reported EC50?
A: > 100 µM

---

- Measured Target: Serotonin transporter (Homo sapiens, UniProt P31645)
- Sequence (P31645 whole entry): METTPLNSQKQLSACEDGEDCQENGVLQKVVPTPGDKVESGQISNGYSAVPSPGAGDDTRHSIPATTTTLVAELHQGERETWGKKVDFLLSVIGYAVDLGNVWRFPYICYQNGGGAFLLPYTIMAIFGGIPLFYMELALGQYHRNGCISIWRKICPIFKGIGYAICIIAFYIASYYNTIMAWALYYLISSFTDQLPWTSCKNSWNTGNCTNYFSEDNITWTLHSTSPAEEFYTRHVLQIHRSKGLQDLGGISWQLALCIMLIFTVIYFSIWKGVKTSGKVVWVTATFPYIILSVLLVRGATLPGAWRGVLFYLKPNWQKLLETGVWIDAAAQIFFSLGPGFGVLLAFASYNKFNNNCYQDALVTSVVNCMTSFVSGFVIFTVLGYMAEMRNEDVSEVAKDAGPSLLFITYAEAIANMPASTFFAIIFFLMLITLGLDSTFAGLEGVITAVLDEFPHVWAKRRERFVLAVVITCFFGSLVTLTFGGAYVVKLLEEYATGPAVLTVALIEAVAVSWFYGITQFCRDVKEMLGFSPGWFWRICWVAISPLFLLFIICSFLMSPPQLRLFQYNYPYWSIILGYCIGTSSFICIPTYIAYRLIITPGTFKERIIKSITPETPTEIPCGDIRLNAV
- Method Summary: Off‐target panel: Serotonin transporter
- Type: cell-based
Assay Endpoint: IC50

Q: Given the compound CCC[C@@H](NC(=O)c1cccc2c1CC(=O)N2)[C@@H](O)c1cccc(F)c1C [GSK716] , what is its reported IC50?
A: > 100 µM

---

- Measured Target: α1 nicotinic AChR (Homo sapiens)
- Sequence (P02708 21-457): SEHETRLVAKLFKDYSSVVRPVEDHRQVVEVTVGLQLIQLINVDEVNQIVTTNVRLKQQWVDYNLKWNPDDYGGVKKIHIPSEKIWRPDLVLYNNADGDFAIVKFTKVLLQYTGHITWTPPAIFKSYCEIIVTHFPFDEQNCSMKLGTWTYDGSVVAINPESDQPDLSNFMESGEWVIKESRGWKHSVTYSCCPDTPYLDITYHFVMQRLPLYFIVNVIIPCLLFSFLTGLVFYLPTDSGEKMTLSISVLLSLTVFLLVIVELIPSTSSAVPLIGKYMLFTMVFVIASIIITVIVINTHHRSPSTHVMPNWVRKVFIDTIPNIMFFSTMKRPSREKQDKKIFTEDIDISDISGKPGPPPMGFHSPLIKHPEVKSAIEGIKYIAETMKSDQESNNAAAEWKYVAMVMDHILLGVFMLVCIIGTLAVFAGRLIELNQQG
- Sequence (P11230 24-501 partner): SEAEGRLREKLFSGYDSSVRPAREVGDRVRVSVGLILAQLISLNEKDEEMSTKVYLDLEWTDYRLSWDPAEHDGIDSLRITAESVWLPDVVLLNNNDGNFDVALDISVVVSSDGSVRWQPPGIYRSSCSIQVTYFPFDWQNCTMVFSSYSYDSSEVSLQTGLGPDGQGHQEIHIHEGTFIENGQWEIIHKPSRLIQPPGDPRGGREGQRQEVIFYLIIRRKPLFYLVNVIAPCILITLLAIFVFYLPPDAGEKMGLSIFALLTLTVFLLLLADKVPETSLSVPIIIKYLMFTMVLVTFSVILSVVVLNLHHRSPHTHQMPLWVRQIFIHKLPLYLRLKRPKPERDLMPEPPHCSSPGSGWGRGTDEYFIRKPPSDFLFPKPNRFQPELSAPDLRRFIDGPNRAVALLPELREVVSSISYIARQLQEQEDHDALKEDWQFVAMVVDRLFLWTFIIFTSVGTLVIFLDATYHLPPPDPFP
- Sequence (Q07001 22-517 partner): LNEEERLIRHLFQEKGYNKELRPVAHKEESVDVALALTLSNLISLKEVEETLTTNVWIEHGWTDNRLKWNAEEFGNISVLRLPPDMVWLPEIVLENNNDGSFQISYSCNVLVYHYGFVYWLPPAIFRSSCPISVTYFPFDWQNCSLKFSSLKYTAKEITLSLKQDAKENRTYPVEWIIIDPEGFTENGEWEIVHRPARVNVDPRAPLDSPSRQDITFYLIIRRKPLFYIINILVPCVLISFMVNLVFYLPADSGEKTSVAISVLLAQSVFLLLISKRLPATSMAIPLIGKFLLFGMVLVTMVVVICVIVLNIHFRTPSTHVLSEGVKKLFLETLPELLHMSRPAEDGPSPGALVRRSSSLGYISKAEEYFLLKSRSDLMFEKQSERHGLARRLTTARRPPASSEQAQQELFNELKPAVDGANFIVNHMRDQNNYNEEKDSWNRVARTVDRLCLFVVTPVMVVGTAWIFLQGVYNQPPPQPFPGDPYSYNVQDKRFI
- Method Summary: Off‐target panel: α1 nicotinic AChR
- Method: GSK716 selectivity and PK properties were profiled in order to investigate the suitability of GSK716 for progression into in vivo studies and the potential for taking it forward as a clinical candidate for testing in humans. Since GSK716 results in loss of inhibitory activity of α1‐antitrypsin, the effect of the compound was assessed on other closely related serpins. […]
Assay Endpoint: EC50

Q: Given the compound CCC[C@@H](NC(=O)c1cccc2c1CC(=O)N2)[C@@H](O)c1cccc(F)c1C [GSK716] , what is its reported EC50?
A: > 50.1 µM

---

- Method Summary: Total and unbound drug concentrations in blood and liver of Z α1‐antitrypsin transgenic mice
- Assay type: in vivo
- Condition Set: female, Z α1-antitrypsin transgenic (hemizygous), mouse, whole blood, oral, 10 mg/kg, 10 mg/kg three times a day, time 123 h; read-out: TOTAL mean concentration ± SD, Blood
Assay Endpoint: concentration at 123 h (µM)
Answers are plain numbers, in µM.

Q: Given the compound CCC[C@@H](NC(=O)c1cccc2c1CC(=O)N2)[C@@H](O)c1cccc(F)c1C , what is its reported concentration at 123 h?
A: 8.7

// provenance: paper PMC7933930
